TARGET ENTITY: human recombinant 5-HT2C receptor (Homo sapiens)
Construct: expressed in transfected cells
Sequence (P28335 33-458): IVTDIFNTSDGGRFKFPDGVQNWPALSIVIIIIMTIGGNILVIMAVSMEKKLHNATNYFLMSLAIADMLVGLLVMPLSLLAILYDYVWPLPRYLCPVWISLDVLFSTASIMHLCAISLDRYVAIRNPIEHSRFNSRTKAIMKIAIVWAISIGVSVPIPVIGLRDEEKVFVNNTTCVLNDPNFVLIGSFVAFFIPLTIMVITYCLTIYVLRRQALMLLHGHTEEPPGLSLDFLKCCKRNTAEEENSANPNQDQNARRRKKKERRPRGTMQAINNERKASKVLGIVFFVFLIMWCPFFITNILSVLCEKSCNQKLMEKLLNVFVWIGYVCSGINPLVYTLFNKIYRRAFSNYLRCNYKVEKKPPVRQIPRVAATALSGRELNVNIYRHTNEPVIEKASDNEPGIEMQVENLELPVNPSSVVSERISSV
METHOD SUMMARY: [3H]Mesulergine binding to serotonin 5-HT2C receptor
CONDITION DESCRIPTION: [3H]Mesulergine (1 nM); membranes from CHO-K1 cell line expressing human recombinant 5-HT2C receptor; 30 min at 37° C.; read-out: Affinity for 5-HT2C receptor (IC50)
Assign labels as follows, please: y for IC50 below 400 nM; n for IC50 equal to or exceeding 400 nM.

Solved cases below.
# COMPOUND, LABEL
data = [
    ("CC1CCN(c2nc(Nc3ccc(F)cc3)c3cnn(C)c3n2)CC1 [Comp. 24]", "n"),
    ("CN1CCN(c2nc(Nc3ccc(F)cc3)c3cnn(C)c3n2)CC1 [Comp. 35]", "y"),
    ("Cn1ncc2c(Nc3ccc(F)cc3)nc(N3CCCCC3)nc21 [Comp. 22]", "n"),
    ("Cn1ncc2c(Nc3ccc(F)cc3)nc(NCCN3CCOCC3)nc21 [Comp. 18]", "n"),
    ("Cn1ncc2c(Nc3ccc(F)cc3)nc(N3CCN(c4ccccc4)CC3)nc21 [Comp. 28]", "n"),
]

// switching to the query compound
Query :: For this compound, is IC50 lower than 400 nM? CCN(CC)c1nc(Nc2ccc(F)cc2)c2cnn(C)c2n1 [Comp. 20]
Result :: n
